- ASSAY_TARGET: T1, MBP-KPNA7 (wild type) (human, UniProt A9QM74 1-516)
- T1 construct: also called WT KPNA7; MBP-KPNA7 WT; source: E. coli BL21, purified (amylose resin, eluted with maltose, dialyzed)
- T1 sequence (A9QM74 whole entry): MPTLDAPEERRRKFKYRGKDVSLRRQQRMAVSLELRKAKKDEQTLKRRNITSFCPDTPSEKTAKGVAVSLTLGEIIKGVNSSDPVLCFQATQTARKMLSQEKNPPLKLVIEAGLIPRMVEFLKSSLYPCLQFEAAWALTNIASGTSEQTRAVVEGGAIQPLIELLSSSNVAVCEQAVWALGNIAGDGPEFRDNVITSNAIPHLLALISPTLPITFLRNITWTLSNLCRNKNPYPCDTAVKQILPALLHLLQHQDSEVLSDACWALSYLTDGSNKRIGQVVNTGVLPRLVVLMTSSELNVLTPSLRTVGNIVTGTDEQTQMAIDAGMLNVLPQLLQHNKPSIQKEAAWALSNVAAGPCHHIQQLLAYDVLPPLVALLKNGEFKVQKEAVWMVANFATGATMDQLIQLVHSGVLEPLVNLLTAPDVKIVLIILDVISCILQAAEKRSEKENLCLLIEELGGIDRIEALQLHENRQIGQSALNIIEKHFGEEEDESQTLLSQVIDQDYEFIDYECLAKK
- EXPERIMENT_DESCRIPTION: pull-down; bead binding assay with a range of GST-GFP-hnRNP R-bNLS concentrations (10 nM to 2.7 μM) on KPNA7 proteins; binding curve, apparent KD
- MEASUREMENT_SETUP: both partners purified
pKd: −log10 of the molar value.
PARAMETER_MEASURED: pKd

Reported pKd of RGGNVGGKRKADGYNQPDSKRRQTN (domain or fragment, UniProt O43390 565-589, looked up, hnRNP R, bipartite NLS (bNLS, a.a. 565-589), cloned into pGEX-4T1-GFP; The limits are those that the text gives for the NLS; also called hnRNP R bNLS; hnRNP R-bNLS; source: E. coli BL21, purified (glutathione resin)) [GST-GFP-hnRNP R bipartite NLS] : ~6.91
